# details: cynomolgus monkey, in vivo, sc, 40 mg/kg
Below is a list of entries, each paired with its recorded Platelets value.
Answer with the number, then the unit.

Look over these answered cases.
For ISIS 583918: antisense compound targeted to human AR (AGTCGCGACTCTGGTA; 3-10-3 (S)-cEt gapmer, further chemistry not given here) the substance record lists Platelets as 435000 µL

Field Platelets (entry TTGATTTAATGGTTGC [ISIS 560131] (MOE and (S)-cEt gapmer chemistry, further chemistry not given here) ) reads 392000 µL

Now let's try a different one.
Entry ISIS 584269: antisense compound targeted to human AR (CCTTATGGATGCTGCT; 3-10-3 (S)-cEt gapmer, further chemistry not given here) — recorded Platelets = 522000 µL
